target: mouse ACVR2A (mouse, UniProt P27038 20-135, limits assumed); experiment: ELISA; note: test concentration or dose not given here
Sequence (P27038 20-135 limits assumed): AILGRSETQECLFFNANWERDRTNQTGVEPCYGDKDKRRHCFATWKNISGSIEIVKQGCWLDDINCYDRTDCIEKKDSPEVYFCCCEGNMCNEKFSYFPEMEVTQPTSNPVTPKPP
The following binders are shown together with reported optical density values.
Return type: number; implicit unit OD.

See these solved cases before continuing.
367_F05 (antibody, V domains shown, VH/VL only) VH: EVQLLESGGGLVQPGGSLRLSCAASGFTFSSYGMNWVRQAPGKGLEWVASINYNGGYTGYADSVKGRFTISRDNSKNTLYLQMNSLRAEDTAVYYCARSATWHDTALDYWGQGTLVTVSS VL: DIQMTQSPSSLSASVGDRVTITCRASQSILSYVNWYQQKPGKAPKLLIYAATSRASGVPSRFSGSGSGTDFTLTISSLQPEDFATYYCQQSYSSPLTFGGGTKVEIK ... 2.48
370_H03 (antibody, V domains shown, VH/VL only) VH: EVQLLESGGGLVQPGGSLRLSCAASGFTFDSYSMNWVRQAPGKGLEWVAGINYNSGYKGYADSVKGRFTISRDNSKNTLYLQMNSLRAEDTAVYYCARSATWHDTHLDYWGQGTLVTVSS VL: DIQMTQSPSSLSASVGDRVTITCRASQSILTYLNWYQQKPGKAPKLLIYAATSLASGVPSRFSGSGSGTDFTLTISSLQPEDFATYYCQQSYDTPLTFGGGTKVEIK ... 3.56
376_B05 (antibody, V domains shown, VH/VL only) VH: EVQLLESGGGLVQPGGSLRLSCAASGFTFSSYSMNWVRQAPGKGLEWVANINYNGGYTGYADSVKGRFTISRDNSKNTLYLQMNSLRAEDTAVYYCARSANWHDTALDYWGQGTLVTVSS VL: DIQMTQSPSSLSASVGDRVTITCRASQSIISYVNWYQQKPGKAPKLLIYAATSRASGVPSRFSGSGSGTDFTLTISSLQPEDFATYYCQQSYELPLTFGGGTKVEIK ... 3.78

// query Could you tell me which optical density is on file for 375_D05 (antibody, V domains shown, VH/VL only) VH: EVQLLESGGGLVQPGGSLRLSCAASGFTFSSYSMNWVRQAPGKGLEWVASINYNSGYTSYADSVKGRFTISRDNSKNTLYLQMNSLRAEDTAVYYCARSANWHDTHLDYWGQGTLVTVSS VL: DIQMTQSPSSLSASVGDRVTITCRASQSIVSYLNWYQQKPGKAPKLLIYAATSLHSGVPSRFSGSGSGTDFTLTISSLQPEDFATYYCQQSYDTPLTFGGGTKVEIK ?
// result 3.61

// query Fill blank: measured optical density of the binder 369_F12 (antibody, V domains shown, VH/VL only) VH: EVQLLESGGGLVQPGGSLRLSCAASGFTFSSYSMNWVRQAPGKGLEWVASINYNSGYKSYADSVKGRFTISRDNSKNTLYLQMNSLRAEDTAVYYCARSATWHDTHLDYWGQGTLVTVSS VL: DIQMTQSPSSLSASVGDRVTITCRASQSIISYLNWYQQKPGKAPKLLIYAVTSLASGVPSRFSGSGSGTDFTLTISSLQPEDFATYYCQQSYENPLTFGGGTKVEIK is ____.
// result 2.82

// query Form field: reported optical density of 368_G05 (antibody, V domains shown, VH/VL only) VH: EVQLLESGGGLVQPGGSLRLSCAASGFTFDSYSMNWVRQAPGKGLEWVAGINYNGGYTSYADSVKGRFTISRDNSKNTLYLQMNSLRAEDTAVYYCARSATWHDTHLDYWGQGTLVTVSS VL: DIQMTQSPSSLSASVGDRVTITCRASQSILTYVNWYQQKPGKAPKLLIYAATSLHSGVPSRFSGSGSGTDFTLTISSLQPEDFATYYCQQSYNTPLTFGGGTKVEIK
// result 2.42

// query Suppose we examine the binder 375_E01 (antibody, V domains shown, VH/VL only) VH: EVQLLESGGGLVQPGGSLRLSCAASGFTFSSYSMNWVRQAPGKGLEWVSGINYNSGYKSYADSVKGRFTISRDNSKNTLYLQMNSLRAEDTAVYYCARSANWHDTALDYWGQGTLVTVSS VL: DIQMTQSPSSLSASVGDRVTITCRASQSILTYLNWYQQKPGKAPKLVIYAATSRASGVPSRFSGSGSGTDFTLTISSLQPEDFATYYCQQSDDSPLTFGGGTKVEIK ; what optical density value has been reported?
// result 3.63

// query So what's the measured optical density for this one? 366_A09 (antibody, V domains shown, VH/VL only) VH: EVQLLESGGGLVQPGGSLRLSCAASGFTFSDYGMHWVRQAPGKGLEWVASINYNSGYTSYADSVKGRFTISRDNSKNTLYLQMNSLRAEDTAVYYCARSATWHDTHLDYWGQGTLVTVSS VL: DIQMTQSPSSLSASVGDRVTITCRASQSILTYLNWYQQKPGKAPKLLIYAATSRHSGVPSRFSGSGSGTDFTLTISSLQPEDFATYYCQQSYETPLTFGGGTKVEIK
// result 1.93

// query Which value of optical density has been reported for 369_C10 (antibody, V domains shown, VH/VL only) VH: EVQLLESGGGLVQPGGSLRLSCAASGFTFSSYSMNWVRQAPGKGLEWVANINYNGGYTSYADSVKGRFTISRDNSKNTLYLQMNSLRAEDTAVYYCARSATWHDTALDYWGQGTLVTVSS VL: DIQMTQSPSSLSASVGDRVTITCRASQSIVTYLNWYQQKPGKAPKLLIYAATSLHSGVPSRFSGSGSGTDFTLTISSLQPEDFATYYCQQSDSLPLTFGGGTKVEIK in the records?
// result 2.46

// query What measured optical density goes with 375_G07 (antibody, V domains shown, VH/VL only) VH: EVQLLESGGGLVQPGGSLRLSCAASGFTFDSYSMNWVRQAPGKGLEWVAGINYNSGYTSYADSVKGRFTISRDNSKNTLYLQMNSLRAEDTAVYYCARSATWHDTHLDYWGQGTLVTVSS VL: DIQMTQSPSSLSASVGDRVTITCRASQSILSYLNWYQQKPGKAPKLVIYAATSLASGVPSRFSGSGSGTDFTLTISSLQPEDFATYYCQQSYDLPLTFGGGTKVEIK ?
// result 3.67
